# experimental_details: Water solubility
# Format: physicochemical
# conditions_used: table of example 2
Bridge positions count the residues as written; N and C are the ends. Square brackets hold non-standard residues; d marks the D form. Peptide text beside a SMILES is read from it. * marks the point of attachment. βGal = OC[C@H]1O[C@@H](*)[C@H](O)[C@@H](O)[C@H]1O; X1 = OC[C@H]1O[C@@H](N*)[C@H](O)[C@@H](O)[C@H]1O; Dap = NC[C@H](N)C(=O)O
Solubility reference
Only the number, expressed in µg/mL, is required.

CC(C)C[C@@H]1NC(=O)[C@@H]2CNC(=O)C[C@H](NC(=O)[C@H](CO[C@@H]3O[C@H](CO)[C@H](O)[C@H](O)[C@H]3O)NC1=O)C(=O)N[C@@H](Cc1c[nH]c3ccccc13)C(=O)N[C@@H](Cc1ccccc1)C(=O)N2 [Comparative example 1] (cyclo(DWF[Dap]LS(βGal)); lactam 1-4)
2.020
CC(C)C[C@@H]1NC(=O)[C@@H]2CNC(=O)C[C@H](NC(=O)[C@H](CS[C@@H]3O[C@H](CO)[C@H](O)[C@H](O)[C@H]3O)NC1=O)C(=O)N[C@@H](Cc1c[nH]c3ccccc13)C(=O)N[C@@H](Cc1ccccc1)C(=O)N2 [Example 1] (cyclo(C(βGal)DWF[Dap]L); lactam 2-5)
1.800
CC(C)C[C@@H]1NC(=O)[C@@H]2CNC(=O)C[C@H](NC(=O)[C@H](CC(=O)N[C@@H]3O[C@H](CO)[C@H](O)[C@H](O)[C@H]3O)NC1=O)C(=O)N[C@@H](Cc1c[nH]c3ccccc13)C(=O)N[C@@H](Cc1ccccc1)C(=O)N2 [Comparative example 2] (cyclo(D(X1)DWF[Dap]L); lactam 2-5)
1.980

Continue with the compound presented below.
Ask: Give its Solubility value. Item: CSCC[C@@H]1NC(=O)[C@H](CC(C)C)NC(=O)[C@@H]2CNC(=O)C[C@H](NC1=O)C(=O)N[C@@H](Cc1c[nH]c3ccccc13)C(=O)N[C@@H](Cc1ccccc1)C(=O)N2 [MEN 10627] (cyclo(DWF[Dap]LM); lactam 1-4)
Result: 15

Data provenance is patent US6075006A.
